Target: MERTK (UniProt Q12866)
Sequence (Q12866 whole entry, looked up): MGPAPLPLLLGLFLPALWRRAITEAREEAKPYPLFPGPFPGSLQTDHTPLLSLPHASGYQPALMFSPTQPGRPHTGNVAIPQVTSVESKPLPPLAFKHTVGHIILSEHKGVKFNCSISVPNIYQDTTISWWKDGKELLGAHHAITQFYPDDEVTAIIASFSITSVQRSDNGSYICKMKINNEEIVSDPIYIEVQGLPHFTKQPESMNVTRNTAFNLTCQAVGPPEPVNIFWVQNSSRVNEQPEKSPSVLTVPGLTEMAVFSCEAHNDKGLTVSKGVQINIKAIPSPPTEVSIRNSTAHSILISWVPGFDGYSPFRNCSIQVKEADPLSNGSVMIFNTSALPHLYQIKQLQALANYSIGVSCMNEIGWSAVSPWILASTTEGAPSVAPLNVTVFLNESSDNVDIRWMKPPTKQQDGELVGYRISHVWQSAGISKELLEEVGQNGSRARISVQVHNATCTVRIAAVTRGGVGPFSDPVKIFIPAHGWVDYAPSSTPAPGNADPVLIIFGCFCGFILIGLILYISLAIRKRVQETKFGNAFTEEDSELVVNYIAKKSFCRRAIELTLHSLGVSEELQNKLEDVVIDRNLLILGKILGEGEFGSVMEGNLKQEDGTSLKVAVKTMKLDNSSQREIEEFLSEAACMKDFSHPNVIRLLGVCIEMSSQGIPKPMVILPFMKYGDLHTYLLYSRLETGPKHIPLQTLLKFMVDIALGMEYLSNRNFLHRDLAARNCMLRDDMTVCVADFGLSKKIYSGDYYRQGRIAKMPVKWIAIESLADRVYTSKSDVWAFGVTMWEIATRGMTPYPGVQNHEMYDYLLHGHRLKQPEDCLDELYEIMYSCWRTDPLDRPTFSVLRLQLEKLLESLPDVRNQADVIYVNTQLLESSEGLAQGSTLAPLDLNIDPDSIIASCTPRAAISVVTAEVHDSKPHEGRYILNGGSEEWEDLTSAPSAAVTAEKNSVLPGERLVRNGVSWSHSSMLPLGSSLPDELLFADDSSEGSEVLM
Assay: phosphorylation enrichment, bacterial display (enrichment ratio); higher = better substrate or ligand; peptides without Tyr show the background
Measurement Label: phosphorylation enrichment
Answers are plain numbers.

Would you mind giving phosphorylation enrichment for every sequence in the list below?
1. IHFAIYFLKYS [ARMC9_Y107_L108F]
2. RSSNTYTLMDV [ALCAM_Y298_T301M]

1. 0.529
2. 4.15

====

Tested on: Fer (mouse)
Assay: phosphorylation enrichment, bacterial display (enrichment ratio); higher = better substrate or ligand; peptides without Tyr show the background
Measurement Label: phosphorylation enrichment

Here is how some sequences turned out for phosphorylation enrichment.
GYRVCYTPDSR [PTPRF_Y451_Y450C]: 0.505
DPEATYTTSGS [EPHA2_Y772_G777S]: 0.48
GCAGKYIAMVM [CYP19A1_Y441]: 0.513
GIVEDYRPPFC [ACVRL1_Y421_Y426C]: 0.437
FYRNVYHLASV [RBL1_Y796_K794N]: 0.417

Would you mind giving phosphorylation enrichment for every sequence in the list below?
1. IRGNMYFENSF [EGFR_Y112_YF]
2. SVDRDYVLKSA [HTATIP2_Y111_R106S]
3. LLLLFCVVRFC [MPZ_Y177_Y177C_YF]
4. DQLVKYGVNPG [TMPO_Y127]
5. KFDLMYAKHAF [TUBA1A_Y399_R402H]
6. HPHECYAKVFD [ALB_Y394_D389H]

1. 0.527
2. 0.403
3. 1.16
4. 0.356
5. 1.07
6. 0.624

Would you mind giving phosphorylation enrichment for every sequence in the list below?
1. KNEVLYDEENH [ARFGEF1_Y314_G316E]
2. HTEGEYSSLEH [IDH3B_Y171_Q166H]
3. PDGHEYIFVDP [PDGFRA_Y572_YF]
4. AESPEHVHMYT [FAM111A_Y511_Y511H]

1. 0.5
2. 0.791
3. 0.576
4. 0.432

Would you mind giving phosphorylation enrichment for every sequence in the list below?
1. QLAPQYTFAQG [FLNA_Y1761_YF]
2. SGIFQYIIAKF [FOXL2_Y83_YF]
3. DRSSLYLVAGP [KIAA1614_Y1083_N1078D]
4. FADIAYNYRQG [PAH_Y166_H170Q]
5. RVLKLYGCSPS [ASTL_Y279]
6. MHFSNYVSKGS [PDGFRA_Y849_D846Y_YF]
7. LHAAAYQNALA [UQCRC2_Y182_R183Q]

1: 0.471; 2: 0.503; 3: 0.615; 4: 0.471; 5: 0.981; 6: 0.367; 7: 0.427

====

Biological target: SHP2-C SH2
Assay: SH2 binding enrichment of the phosphorylated peptide, bacterial display (enrichment ratio); higher = better substrate or ligand; peptides without Tyr show the background
Rule: SH2 binding enrichment under 0.6 gives not met, otherwise met.

Observe how each entry below is paired with its result.
FDDGKYVFVVT [RPS6KA3_Y488_YF]: not met
VTAALYGCLYE [BTD_Y536_R538C]: not met
VVLVSYVPSSQ [SH2B1_Y624]: met

Dear colleague, could you confirm whether MFCASYDTKQE [F10_Y407_G406S] has SH2 binding enrichment at or above 0.6? met

Dear colleague, could you confirm whether GHLYANDWISI [BEST1_Y227_Y227N] has SH2 binding enrichment at or above 0.6? met

Dear colleague, could you confirm whether ATCKAYGQALA [TKT_Y321_R318C] has SH2 binding enrichment at or above 0.6? met

Dear colleague, could you confirm whether IGERTYGQVFK [CDK13_Y716_G714R_YF] has SH2 binding enrichment at or above 0.6? met

Dear colleague, could you confirm whether PNRILYRDFRQ [MYH7_Y715_G716R] has SH2 binding enrichment at or above 0.6? met

Dear colleague, could you confirm whether TAALWYIFSHT [ENG_Y612_YF] has SH2 binding enrichment at or above 0.6? met

Dear colleague, could you confirm whether EYGRRYGFSRQ [CCDC93_Y209] has SH2 binding enrichment at or above 0.6? not met

Dear colleague, could you confirm whether IHFAIYFLKYS [ARMC9_Y107_L108F] has SH2 binding enrichment at or above 0.6? met

Dear colleague, could you confirm whether HTEGEYSSLEH [IDH3B_Y171_Q166H] has SH2 binding enrichment at or above 0.6? met

Dear colleague, could you confirm whether KNRDVYSSDFF [USP24_Y2134_YF] has SH2 binding enrichment at or above 0.6? not met

====

Molecular target: Grb2 SH2 (UniProt P62993)
Sequence (P62993 whole entry, looked up): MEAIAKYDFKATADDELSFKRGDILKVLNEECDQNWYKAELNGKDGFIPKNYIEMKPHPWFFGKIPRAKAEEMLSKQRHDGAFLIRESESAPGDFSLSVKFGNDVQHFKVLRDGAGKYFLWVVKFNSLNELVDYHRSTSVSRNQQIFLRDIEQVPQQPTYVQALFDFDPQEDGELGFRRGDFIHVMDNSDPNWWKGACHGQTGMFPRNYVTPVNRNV
Experiment: SH2 binding enrichment of the phosphorylated peptide, bacterial display (enrichment ratio); higher = better substrate or ligand; peptides without Tyr show the background
Rule: SH2 binding enrichment under 1 gives n, otherwise y.

Observe how each entry below is paired with its result.
PDMHSYVVRYN [GRIN2D_Y732_M733V]: n
WKKEIYEESST [MOCS2_Y170]: n
ATDLAYFLVRK [ASL_Y375_YF]: y

Lab note: next sequence to report on.
Dear colleague, could you confirm whether LENSTYQFIRV [CRB1_Y760_YF] has SH2 binding enrichment at or above 1? n

====

Molecular target: Hck (UniProt P08631)
Sequence (P08631 whole entry, looked up): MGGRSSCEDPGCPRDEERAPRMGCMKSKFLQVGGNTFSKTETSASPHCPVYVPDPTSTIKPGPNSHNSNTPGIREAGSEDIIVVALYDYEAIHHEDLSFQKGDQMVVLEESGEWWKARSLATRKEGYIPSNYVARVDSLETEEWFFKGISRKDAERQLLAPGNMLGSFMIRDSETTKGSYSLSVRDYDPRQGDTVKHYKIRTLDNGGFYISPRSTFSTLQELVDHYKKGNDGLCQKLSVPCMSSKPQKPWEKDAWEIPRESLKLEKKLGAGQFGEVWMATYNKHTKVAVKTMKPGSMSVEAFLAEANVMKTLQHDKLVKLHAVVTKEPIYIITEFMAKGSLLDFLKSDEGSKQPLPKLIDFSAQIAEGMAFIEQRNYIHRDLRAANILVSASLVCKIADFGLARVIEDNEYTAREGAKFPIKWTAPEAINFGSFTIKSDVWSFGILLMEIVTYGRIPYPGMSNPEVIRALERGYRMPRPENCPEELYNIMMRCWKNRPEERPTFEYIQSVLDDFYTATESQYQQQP
Experiment: phosphorylation enrichment, bacterial display (enrichment ratio); higher = better substrate or ligand; peptides without Tyr show the background
Measurement Label: phosphorylation enrichment

LHVGFYESDVM [A2M_Y708_R704H]: 0.743

Would you mind giving phosphorylation enrichment for every sequence in the list below?
1. VILARYGPAWR [CYP2D6_Y124_F120I]
2. NVDGKYSYLKV [GRM3_Y478_G475D]
3. VIESSYTSADG [DHCR7_Y382_C380S]
4. DLDLTSIYPNI [PTEN_Y27_Y27S]
5. SVTCTYSPAIN [TP53_Y126_L130I]
6. CEAVEYLESKQ [BTK_Y511_M509V]

1. 0.602
2. 0.554
3. 0.476
4. 0.478
5. 0.749
6. 0.613

Would you mind giving phosphorylation enrichment for every sequence in the list below?
1. GYRVCYTPDSR [PTPRF_Y451_Y450C]
2. QRRLIYRCQVG [NR2E3_Y81_R76Q]
3. NKPTVCGVSPN [ABL1_Y226_Y226C]
4. EKEQNYDLTQV [ECD_Y448_E452Q]
5. HGEAFYSEVKA [PAK5_Y182_P187A_YF]

1: 0.547; 2: 0.629; 3: 0.404; 4: 0.528; 5: 5.57

Lab note: SDFFAYSPVQE [H6PD_Y449_R453Q_YF] gave phosphorylation enrichment of 0.647

====

Target: MERTK (UniProt Q12866)
Experiment: phosphorylation enrichment, bacterial display (enrichment ratio); higher = better substrate or ligand; peptides without Tyr show the background
Measurement Label: phosphorylation enrichment
Answers are plain numbers.

DKMEAYNINET [TEKT4_Y210_D213N]: 0.492
SHNKYYMLVAH [MFSD8_Y134_R139H]: 3.19
QTSTDYDIRFF [CSNK2A1_Y131_L128S_YF]: 0.688
ASRKYYAMKIL [AKT3_Y174_G171R]: 0.437
NTGGYYDLYGG [PTPN11_Y63_D61G]: 7.92
PLDGEYFTLRI [TP53_Y327_Q331R]: 0.45
LERFIYNREEL [HLA-DPB1_Y59_F64L_YF]: 0.694
LPSKDYAEVRR [HP_Y272_G276R]: 0.361
KWTVDYLGQVG [TYW5_Y48_S50G]: 0.336
LQRVQCDLQKA [DSP_Y1512_Y1512C]: 0.762

Would you mind giving phosphorylation enrichment for every sequence in the list below?
1. ERWLKYFPIEQ [HS3ST5_Y244]
2. SNKLFYQLEQE [PDPR_Y110_YF]

1. 0.451
2. 0.508

====

Target: SHP2-C SH2
Experiment: SH2 binding enrichment of the phosphorylated peptide, bacterial display (enrichment ratio); higher = better substrate or ligand; peptides without Tyr show the background
Consider the following sequences; for each one, report its SH2 binding enrichment.

Here is how some sequences turned out for SH2 binding enrichment.
PSRKDYETYQP [CTNND2_Y1154]: 0.818
GQAPGYSFTAA [CYCS_Y47_YF]: 0.8

Query NGQALYAACQT [XDH_Y1092_V1091L] on SHP2-C SH2; SH2 binding enrichment returned: 0.787

====

Target: c-Src SH2
Test: SH2 binding enrichment of the phosphorylated peptide, bacterial display (enrichment ratio); higher = better substrate or ligand; peptides without Tyr show the background
Consider the following sequences; for each one, report its SH2 binding enrichment.
Give bare numbers.

NWGSPYKSDGC [ZNF347_Y261_N264D]: 0.405
QWLEQYTQAIE [LSP1_Y234]: 0.709
IPQEEYTATGL: 0.441
KENITYMKSEQ [L1TD1_Y24_R27S]: 0.53

Would you mind giving SH2 binding enrichment for every sequence in the list below?
1. MPIPMYDGSQA [CARMIL1_Y637_A639G]
2. AVLSLCASGRT [ACTA2_Y145_Y145C]
3. PATINYLFEKG [NDUFS8_Y84_P85L]
4. LRVHSYKSMQH [DRC7_Y516_P521H]
5. SHNKYYMLVAH [MFSD8_Y134_R139H]

1: 0.452; 2: 0.488; 3: 0.611; 4: 0.841; 5: 2.35

Would you mind giving SH2 binding enrichment for every sequence in the list below?
1. LFRFGYANTSE [SI_Y1233_C1229Y_YF]
2. LGKLIYPVGFW [NTHL1_Y177]

1. 0.936
2. 1.13

Would you mind giving SH2 binding enrichment for every sequence in the list below?
1. PMDTFYDSTRG [DYNC2H1_Y2231_YF]
2. SDVLSYGVTMW [ZAP70_Y525_W523L]
3. DKMEAYNINET [TEKT4_Y210_D213N]
4. VVLVSYVPSSQ [SH2B1_Y624]

1.08
0.474
0.444
0.95
